# Test system: KM12
# Assay Text: NCI tumour cell line growth inhibition, 48 h
Activity calls are given as the source filed them. Rule as the data show it: active = GI50 up to about 1.1 µM and inactive = higher.
Readout Name: GI50

> print(dat)
                                   compound  readout.name  experimental.result
1  COC(=O)CC1C(C)(C)C(=O)C2CC3=C4CC(=O)OC(c5ccoc5)C4(C)CCC3C1(C)C2=O (configuration not stated)          GI50  > 100 µM (inactive)
2          NC1CCCCC1.O=C(O)C1(P(=O)(O)O)CC1          GI50  > 100 µM (inactive)
3           O=c1c2ccccc2[nH]c2cc(O)cc(O)c12          GI50   34.9 µM (inactive)

Go through the list and state GI50 for each entry.
1. O=C(NN1C(=O)CS(=O)(=O)C1c1cccc(F)c1)c1ccncc1 (configuration not stated)
2. CC1C(=O)C(C)C(c2ccccc2)N(N=O)C1c1ccccc1 (configuration not stated)
3. CC1(C)C2CCC1(C)C(N/C(Sc1ccccc1)=C(/C(Cl)=C(Cl)Cl)[N+](=O)[O-])C2 (configuration not stated)

> 100 µM (inactive)
> 439 µM (inactive)
4.8 µM (inactive)

For the compound shown here, COC(=O)NC(Cc1ccccc1)NC(=O)OC(C)(C)C (configuration not stated) , give the reported GI50.
> 100 µM (inactive)

---

# Test system: ACHN
# Assay Text: NCI tumour cell line growth inhibition, 48 h
Activity calls are given as the source filed them. Cut-off read from the data, not from the text of the source: active = GI50 up to about 1.1 µM and inactive = higher.
Your reply should match one of these outcome classes. active, inactive

Solved cases below.
> print(dat)
                                   compound  experimental.system     group
1  CCN(CC)CCCNc1ccc2ncn3c4ccc(O)cc4c(=O)c1c23                 ACHN    active
2            CC(C)(C)C(=O)C(N)C(=O)C(C)(C)C                 ACHN  inactive
3        NC(=O)c1ccc(NCC2=CC(=O)C=CC2=O)cc1                 ACHN  inactive
4    Clc1ccccc1C(c1ccccc1)(c1ccccc1)n1ccnc1                 ACHN  inactive

GET /call?item= CCC1OC2C(CC=C(C)C)=C3OC(C)(O)C(C)(CC)C(=O)C3=C3OC(=O)C=C1C32 (stereo unspecified) returns the recorded outcome of this test.
inactive

GET /call?item= Nc1cc(N)c(/N=N/c2cccc3c(S(=O)(=O)O)cccc23)cc1/N=N/c1cc([N+](=O)[O-])ccc1O returns the recorded outcome of this test.
inactive

GET /call?item= CC(=O)N(CN1C(=O)CCC1C(=O)O)c1ccccc1 (stereo unspecified) returns the recorded outcome of this test.
inactive

GET /call?item= O=C1c2ccccc2C(=O)c2c(OCC3CO3)ccc(OCC3CO3)c21 (stereo unspecified) returns the recorded outcome of this test.
active

GET /call?item= CO[C@@H]1C[C@H]2[C@@H]3CC[C@H]([C@H](C)COC(C)=O)[C@@]3(C)CC[C@@H]2[C@@]2(C)CC[C@H]3C[C@]312 returns the recorded outcome of this test.
inactive

GET /call?item= O=C1N[C@@H](c2c[nH]c3ccc(Br)cc23)C(=O)N[C@H]1c1c[nH]c2ccc(Br)cc12 returns the recorded outcome of this test.
inactive

GET /call?item= COc1cc2oc(=O)cc(C)c2cc1OC returns the recorded outcome of this test.
inactive

GET /call?item= O=C(CCc1ccccc1)NS(=O)(=O)c1ccccc1 returns the recorded outcome of this test.
inactive

GET /call?item= O=C1c2ccccc2C(=O)N1CCCSc1ccccc1 returns the recorded outcome of this test.
inactive

---

# Tested on: A498
# Assay Text: NCI tumour cell line growth inhibition, 48 h
Active and inactive are the calls of the source. No stated cut-off is given here; in the data, active = GI50 up to about 1.1 µM and inactive = higher.
Readout Name: GI50

> print(dat)
                                   molecule  readout.name  experimental.result
1  C=C(C)C1CCC2=CC(CC3(C)OC3C3=CC(C(=O)OC)=C(C1)O3)OC2=O (stereo not given)          GI50  > 100 µM (inactive)
2      N[C@@H]1c2c(Br)sc(Br)c2C(=O)[C@H]1Br          GI50   35.2 µM (inactive)
3       CCCn1cnc2c(SCc3ccc(Cl)cc3)nc(N)nc21          GI50   16.7 µM (inactive)
4  COC(=O)/C=C1/SC(/C(=C(/[O-])OC)[n+]2ccc3ccccc3c2)=NC1=O          GI50  > 100 µM (inactive)

Please examine the following record next.
For the molecule shown here, CSc1nc2c(nc(N)n2C2OC(COC(C)=O)C(OC(C)=O)C(OC(C)=O)C2OC(C)=O)c(=O)n1C (stereo not given) , give the reported GI50.
> 100 µM (inactive)

---

Could you please report measured GI50 for the items listed next?
# System: LOX IMVI
# Assay Text: NCI tumour cell line growth inhibition, 48 h
Active and inactive are the calls of the source. Cut-off read from the data, not from the text of the source: active = GI50 up to about 1.1 µM and inactive = higher.

> print(dat)
                                   molecule  readout.name  experimental.result
1  [O-][S+](Nc1ccccc1)c1ccc(-c2ccccc2)cc1 (centres undefined)          GI50   28.5 µM (inactive)
2       Cc1ccc(C(=O)Nc2ccccc2)cc1/N=N/N(C)C          GI50  > 100 µM (inactive)
3  CC(=O)OC(Cn1cncn1)(Cn1cncn1)c1ccc(Cl)cc1Cl          GI50  > 100 µM (inactive)

Please examine the following record next.
For the molecule shown here, CC(C)(C)OC(=O)N1Cc2cc(O)ccc2C[C@H]1C(=O)O , give the reported GI50.
> 100 µM (inactive)

---

Could you please report measured GI50 for the items listed next?
# System: T47D
# Assay Text: NCI tumour cell line growth inhibition, 48 h
The source made the active and inactive calls. No stated cut-off is given here; in the data, active = GI50 up to about 1.1 µM and inactive = higher.

Study these solved cases before continuing.
Compound	GI50
C/C=C/C=C/C1=NN(c2cccc(S(=O)(=O)O)c2)C2(C1)C(Cl)C(=O)N2c1nc2ccccc2s1 (stereo unspecified)	4.6 µM (inactive)
CC1=CCCC2C1(C)CCC(C)C2(C)Cc1cc(O)ccc1O (stereo unspecified)	6.59 µM (inactive)
COc1ccc2c(c1)SC1=Nc3sc4cc(OC)ccc4[n+]3CN12	4.99 µM (inactive)

Go through the list and state GI50 for each entry.
1. CCC1OC2C(CC=C(C)C)=C3OC(C)(O)C(C)(CC)C(=O)C3=C3OC(=O)C=C1C32 (stereo unspecified)
2. CC1(C)C2CCC1(C)C(N/C(Sc1ccccc1)=C(/C(Cl)=C(Cl)Cl)[N+](=O)[O-])C2 (stereo unspecified)

1. 66.2 µM (inactive)
2. 13.5 µM (inactive)

Go through the list and state GI50 for each entry.
1. CCOC(=O)c1c(O)cc(=O)[nH]c1N1CCOCC1
2. C#CCOC(=O)C(N)C(C)O (stereo unspecified)
3. CCOC(=O)CN1C(=O)c2c(c(C)n(-c3ccccc3)c2C)C1=O

1: > 100 µM (inactive); 2: > 100 µM (inactive); 3: > 100 µM (inactive)

Go through the list and state GI50 for each entry.
1. S=C=NCc1ccccc1 [BENZYL ISOTHIOCYANATE]
2. O=C1N[C@@H](c2c[nH]c3ccc(Br)cc23)C(=O)N[C@H]1c1c[nH]c2ccc(Br)cc12

1: 10.4 µM (inactive); 2: 10.8 µM (inactive)

What is its GI50 for T47D? Entry: COc1ccc(S(=O)(=O)n2c3c(c4ccccc42)[C@@H]2[C@@H](CCCN2C(=O)C[S+]([O-])c2ccc(C)cc2)[C@H](Cl)C3)cc1 (stereo partly specified)
> 100 µM (inactive)

---

# Test system: SK-MEL-2
# Assay Text: NCI tumour cell line growth inhibition, 48 h
Activity calls are given as the source filed them. Cut-off read from the data, not from the text of the source: active = GI50 up to about 1.1 µM and inactive = higher.
Your reply should match one of these outcome classes. Yes = active, No = inactive

Solved cases below.
> print(dat)
                                  compound  group
1                CCOC(=O)/C=C1\CCCC12OCCO2     No
2  Cc1[nH]c2ccccc2c1-c1n[nH]c(=O)c2ccccc12     No
3      Cn1c2ccccc2c2[nH]cc3nc4ccccc4c-3c21     No

GET /call?item= CC1=[N+]([O-])C(C)(C)N(O)C1(C)C returns the recorded outcome of this test.
No

GET /call?item= CCCc1c(OC)c(=O)c2c(OC)cc(OC)c3c4c(OC)cc(OC)c5c(=O)c(OC)c(CCC)c(c1c23)c54 returns the recorded outcome of this test.
No

GET /call?item= CCN(CC)CCCNc1ccc2ncn3c4ccc(O)cc4c(=O)c1c23 returns the recorded outcome of this test.
No

GET /call?item= COc1ccc2nc3cc(Cl)ccc3c(NCCCN3CCN(CCCNc4ccc5nnn6c7ccccc7c(=O)c4c56)CC3)c2c1 returns the recorded outcome of this test.
No
